# System: Menin-MLL (Homo sapiens, UniProt O00255)
# Construct: His-Menin (M1-L615 end); purchased BIORTUS BP9210
# Test summary: Inhibitory activity against Menin-MLL binding (fluorescence polarization)
# Experimental context: fluorescence polarization; 150 nM His-Menin, 15 nM FITC-MLL; 25°C for 60 min; read-out: Menin-MLL IC50
Items are presented alongside their recorded IC50.
Give the value in nM but do not write nM after it.

Molecule: CCN(C(=O)c1cc(F)ccc1-c1cc(C2CN([C@@H](CCCN3CCC(OC)CC3)C(C)C)C2)cc2c1cnn2C)C(C)C
IC50 [nM]: 110

Molecule: CC(=O)N1CCN(CCC[C@H](C(C)C)N2CC(c3cc(-c4ccc(F)cc4C(=O)N4CCOC[C@H]4C)c4c(F)nc(C)n4c3)C2)C[C@@H]1C
IC50 [nM]: 14

Molecule: CCN(C(=O)c1cc(F)ccc1-c1cc(C2CN([C@H](CCCN3CCN(C4(C(N)=O)COC4)CC3)C(C)C)C2)cn2c(C)ncc12)C(C)C
IC50 [nM]: 1

Fetch value of IC50 on Menin-MLL (Homo sapiens, UniProt O00255) for `Cc1cncc2c(-c3ccc(F)cc3C(=O)N(C)C(C)C)cc(CC3CN([C@@H](CCCN4CCN(CCO)CC4)C(C)C)C3)n12` .
27

// output IC50; input Cc1nc(F)c2c(-c3ccc(F)cc3C(=O)N3CCOC[C@H]3C)cc(C3CN(C(CC[C@H]4COCCN4)C(C)C)C3)cn12 (some centres unmarked) ; system Menin-MLL (Homo sapiens, UniProt O00255)
6.4

Give IC50 only, for `Cc1nc(F)c2c(-c3ccc(F)cc3C(=O)N3CCOC[C@H]3C)cc(C3CN([C@@H](C)C4CCOCC4)C3)cn12` , using Menin-MLL (Homo sapiens, UniProt O00255) data.
18

// fetch IC50 for `COCCN(C)CCC[C@H](C(C)C)N1CC(c2cc(-c3ccc(F)cc3C(=O)N3CCOC[C@H]3C)c3c(F)nc(C)n3c2)C1` ; system: Menin-MLL (Homo sapiens, UniProt O00255)
4.3

Under Menin-MLL (Homo sapiens, UniProt O00255), report IC50 for `CCN(C(=O)c1cc(F)ccc1-c1cc(C2CN([C@@H](CN3CCS(=O)(=O)CC3)C(C)C)C2)cn2c(C)ncc12)C(C)C`
110

Param request: IC50 | system Menin-MLL (Homo sapiens, UniProt O00255) | item `CC[C@H](C1CCN(C(C)=O)CC1)N1CC(c2cc(-c3ccc(F)cc3C(=O)N3CCOC[C@H]3C)c3c(F)nc(C)n3c2)C1`
160

Jot down IC50 (Menin-MLL (Homo sapiens, UniProt O00255)) of `Cc1nc(F)c2c(-c3ccc(F)cc3C(=O)N3CCOC[C@H]3C)cc(C3CN(C[C@H]4CC[C@H](c5cnn(C)c5)CC4)C3)cn12` .
7

Check Menin-MLL (Homo sapiens, UniProt O00255) data and give IC50 for `Cc1nc(F)c2c(-c3ccc(F)cc3C(=O)N3CCOC[C@H]3C)cc(C3CN([C@@H](CO[C@H]4CCCN(C)C4)C(C)C)C3)cn12` .
10.7

###

# Tested on: MV-4-11 (carrying MLL-AF4)
# Test summary: Inhibition of proliferation of human tumor cells (Alamar Blue, 7 days), MV-4-11
# Assay type: cell-based
# Experimental context: Homo sapiens, MV4-11, 168 h, MV-4-11 cells (carrying MLL-AF4), method calls the value GI50
pIC50 for assorted compounds
Scale for pIC50: -log10 of concentration given in mol/L; no unit attached.

These recorded examples may help you get a feel for the data.
Smiles notation: COCCC(=O)N1CCC(CN2CC(c3cc(-c4ccc(F)cc4C(=O)N4[C@H](C)COC[C@H]4C)c4c(F)nc(C)n4c3)C2)CC1
Measured result: 8.09

Smiles notation: CCC(=O)N1CCC(CN2CC(Cc3cc(-c4ccc(F)cc4C(=O)N4CCOC[C@H]4C)c4cncc(C)n34)C2)CC1
Measured result: 8.05

Smiles notation: CC(=O)N1CCC([C@H](C)N2CC(c3cc(-c4ccc(F)cc4C(=O)N4CCOC[C@H]4C)c4c(F)nc(C)n4c3)C2)CC1
Measured result: 7.77

Smiles notation: Cc1nc(F)c2c(-c3ccc(F)cc3C(=O)N3CCOC[C@H]3C)cc(C3CN([C@H](CO[C@@H]4CCCN(C)C4)C(C)C)C3)cn12
Measured result: 7.92

Smiles notation: COCC(=O)N1CCC(CN2CC(c3cc(-c4ccc(F)cc4C(=O)N4[C@H](C)COC[C@H]4C)c4c(F)nc(C)n4c3)C2)CC1
Measured result: 7.85

Please find the next compound below.
Name the recorded pIC50 of `Cc1nc(F)c2c(-c3ccc(F)cc3C(=O)N3CCOC[C@H]3C)cc(C3CN([C@H](CC[C@H]4CNCCO4)C(C)C)C3)cn12` , assay system MV-4-11 (carrying MLL-AF4).
7.80

###

# System: Menin-MLL (Homo sapiens)
# Construct: His-Menin (M1-L615 end); purchased BIORTUS BP9210
# Sequence (O00255 1-615 isoform O00255-1): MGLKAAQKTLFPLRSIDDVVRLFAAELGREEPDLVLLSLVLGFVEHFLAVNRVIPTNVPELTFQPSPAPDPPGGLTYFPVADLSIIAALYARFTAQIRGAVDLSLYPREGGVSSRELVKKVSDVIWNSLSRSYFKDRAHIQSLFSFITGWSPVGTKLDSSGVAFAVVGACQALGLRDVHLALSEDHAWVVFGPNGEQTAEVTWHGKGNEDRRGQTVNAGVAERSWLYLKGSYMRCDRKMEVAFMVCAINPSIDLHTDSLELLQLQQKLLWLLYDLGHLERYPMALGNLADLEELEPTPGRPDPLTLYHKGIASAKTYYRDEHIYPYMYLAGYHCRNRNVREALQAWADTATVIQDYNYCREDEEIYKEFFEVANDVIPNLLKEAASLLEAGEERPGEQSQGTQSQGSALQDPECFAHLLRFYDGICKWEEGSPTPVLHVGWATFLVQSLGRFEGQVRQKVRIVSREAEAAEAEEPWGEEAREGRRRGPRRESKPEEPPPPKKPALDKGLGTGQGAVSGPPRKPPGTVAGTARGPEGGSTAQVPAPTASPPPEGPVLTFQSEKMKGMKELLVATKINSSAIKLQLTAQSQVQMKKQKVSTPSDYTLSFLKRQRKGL
# Test summary: Inhibitory activity against Menin-MLL binding (fluorescence polarization)
# Experimental context: fluorescence polarization; 150 nM His-Menin, 15 nM FITC-MLL; 25°C for 60 min; read-out: Menin-MLL IC50
Below, each entry is listed with its recorded log10 IC50.
Values reflect log10 of reported IC50 (nM).

Take a look at these entries with their results.
Smiles notation: CCN(C(=O)c1cc(F)ccc1-c1cc(C2CN([C@H](CCCN3CCC(NS(=O)(=O)CC)CC3)C(C)C)C2)cc2c1cnn2C)C(C)C
log10 IC50: 0.43

Smiles notation: CO[C@H]1CCCN(CCC[C@H](C(C)C)N2CC(c3cc(-c4ccc(F)cc4C(=O)N4CCOC[C@H]4C)c4c(F)nc(C)n4c3)C2)C1
log10 IC50: 0.81

Smiles notation: COC[C@H]1CN(CCC[C@H](C(C)C)N2CC(c3cc(-c4ccc(F)cc4C(=O)N(C(C)C)C(C)C)c4cnc(C)n4c3)C2)CCN1
log10 IC50: 0.08

Smiles notation: CCN(C(=O)c1cc(F)ccc1-c1cc(C2CN([C@H](CN3CCN(C[C@@H](O)CO)CC3)C(C)C)C2)cn2c(C)ncc12)C(C)C
log10 IC50: 0.41

Smiles notation: CC(=O)N1C2CC1CN(CCC[C@H](C(C)C)N1CC(c3cc(-c4ccc(F)cc4C(=O)N4CCOC[C@H]4C)c4c(F)nc(C)n4c3)C1)C2
log10 IC50: 1.26

Smiles notation: CNC(=O)N1CCC([C@H](C)N2CC(c3cc(-c4ccc(F)cc4C(=O)N4CCOC[C@H]4C)c4c(F)nc(C)n4c3)C2)CC1
log10 IC50: 0.78

Smiles notation: Cc1nc(F)c2c(-c3ccc(F)cc3C(=O)N3CCOC[C@H]3C)cc(C3CN([C@H](CC[C@H]4CNCCO4)C(C)C)C3)cn12
log10 IC50: 0.98

Smiles notation: Cc1ncc2c(-c3ccc(F)cc3C(=O)N(C)C(C)C)cc(C3CN([C@H](CCCN4CCN(CCO)CC4)C(C)C)C3)cn12
log10 IC50: 0.34

Smiles notation: CCN1CCN(CCC[C@H](C(C)C)N2CC(c3cc(-c4ccc(F)cc4C(=O)N(CC)C(C)C)c4cnn(C)c4c3)C2)CC1
log10 IC50: 0.51

// switching to the query compound
For `Cc1nc(F)c2c(-c3ccc(F)cc3C(=O)N3CCOC[C@H]3C)cc(C3CN(CC4CCN(C(=O)C5(C#N)CC5)CC4)C3)cn12` , write its log10 IC50.
1.68

Where these numbers come from: patent EP4782453A1
